experimentalSystem: C-Raf kinase (Homo sapiens, UniProt P04049, Y340D/Y341D)
Construct: Y340D,; GST (N); purchased Sigma
Sequence (P04049 307-648 Y340D/Y341D): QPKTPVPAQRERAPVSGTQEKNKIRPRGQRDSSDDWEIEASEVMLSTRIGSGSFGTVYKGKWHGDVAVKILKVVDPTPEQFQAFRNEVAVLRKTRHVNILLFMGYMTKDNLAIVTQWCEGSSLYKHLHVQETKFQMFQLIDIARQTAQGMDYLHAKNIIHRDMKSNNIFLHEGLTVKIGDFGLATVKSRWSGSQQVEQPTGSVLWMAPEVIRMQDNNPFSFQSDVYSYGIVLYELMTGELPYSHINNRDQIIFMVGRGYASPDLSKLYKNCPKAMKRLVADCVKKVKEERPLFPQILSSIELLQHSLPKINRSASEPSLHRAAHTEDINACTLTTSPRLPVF
assayNotes: Biochemical assay for C-Raf.1 (coupled pyruvate kinase/lactate dehydrogenase)
experimentalSetup: read-out: CRAF.1 IC50
propertyLabel: IC50

Cc1ncc(NC(=O)NCCC(C)(C)C)cc1-c1ccnc(N2CCOCC2)c1: 0.1 to 0.5 µM
CC(=O)Nc1cc(-c2cc(-c3cc(NC(=O)NCCC4(C)CC4)ccc3C)cc(N3CCOCC3)n2)ccn1: ≤ 0.1 µM
CC(=O)Nc1cc(-c2cc(-c3cc(NC(=O)NCC45CC(F)(C4)C5)c(F)cc3C)cc(OCCO)n2)ccn1: ≤ 0.1 µM
Cc1cc(F)c(NC(=O)NCCC2(C)CC2)cc1-c1cccc(-c2cc(NC(=O)C3CC3)ncn2)c1: ≤ 0.1 µM
COC(=O)Nc1cc(-c2nccc(-c3cc(NC(=O)NCCC4(OC)CC4)cnc3C)n2)ccn1: 0.1 to 0.5 µM
COC(=O)Nc1cc(-c2cc(-c3cc(NC(=O)N4CCC(C)(C)CC4)cnc3C)cc(OCCO)n2)ccn1: ≤ 0.1 µM
CC(=O)Nc1cc(-c2cc(-c3cc(NC(=O)NCCCC(F)(F)F)c(F)cc3C)cc(C3CC3)n2)ccn1: ≤ 0.1 µM
Cc1ncc(NC(=O)NCCC(C)(C)C)cc1-c1cc(-c2ccnc(NC(=O)C3CC3)c2)cnn1: ≤ 0.1 µM
COC(=O)Nc1cc(-c2nccc(-c3cc(NC(=O)NCCC4(OC)CC4)c(F)cc3C)n2)ccn1: ≤ 0.1 µM
COC(=O)Nc1cc(-c2cnnc(-c3cccc(NC(=O)N4CC[C@H](OC)C4)c3)c2)ccn1: > 1 µM
COC(=O)Nc1cc(-c2cc(-c3cc(NC(=O)NC[C@H]4CCO4)c(F)cc3C)cc(OCCO)n2)ccn1: 0.1 to 0.5 µM
COC1(CCNC(=O)Nc2cc(-c3ccnc(-c4ccnc(NC(=O)C5CC5)c4)n3)c(C)cc2F)CC1: ≤ 0.1 µM
COC[C@H]1CCN(C(=O)Nc2cc(-c3cc(-c4ccnc(NC(=O)OC)c4)cnn3)c(C)cc2F)C1: 0.5 to 1 µM
CNC(=O)c1cc(-c2cnnc(-c3cc(NC(=O)N4CCC(CC(F)(F)F)C4)cnc3C)c2)ccn1 (stereo not drawn): 0.5 to 1 µM
COC(=O)Nc1cc(-c2cc(-c3cc(NC(=O)NCCC4(C)CC4)c(F)cc3C)cc(OCCO)n2)ccn1: ≤ 0.1 µM
Cc1ccc(NC(=O)N2CC[C@H](C(F)(F)F)C2)cc1-c1cncc(-c2ccnc(NC(=O)C3CC3)c2)c1: ≤ 0.1 µM
Cc1ncc(NC(=O)NCCC(C)(C)F)cc1-c1ccnc(-c2ccnc(NC(=O)C3CC3)c2)n1: ≤ 0.1 µM
Cc1cc(F)c(NC(=O)NCCC2(C(F)(F)F)CC2)cc1-c1cc(N2CCOCC2)nc(N2CC(N(C)C)C2)n1: 0.5 to 1 µM
Cc1ccc(NC(=O)N2CC[C@H](C(F)(F)F)C2)cc1-c1cncc(-c2cc(NC(=O)C3CC3)ncn2)c1: ≤ 0.1 µM
COC1(CCNC(=O)Nc2cc(-c3ccnc(-c4ccnc(NC(=O)C5CC5)c4)c3)c(C)cc2F)CC1: ≤ 0.1 µM
COC(=O)Nc1cc(-c2ccnc(-c3cc(NC(=O)NCCC(C)(C)OC)c(F)cc3C)n2)ccn1: ≤ 0.1 µM
Cc1cc(F)c(NC(=O)NCCC(C)(C)C)cc1-c1cc(N2CCOCC2)nc(N2CCOCC2)c1: ≤ 0.1 µM
Cc1ccc(NC(=O)N2CCC(CC(F)(F)F)C2)cc1-c1cncc(-c2cc(N)ncn2)c1 (stereo not drawn): ≤ 0.1 µM
COC1(CCNC(=O)Nc2cc(-c3cccc(-c4cc(NC(=O)C5CC5)ncn4)c3)c(C)cc2F)CC1: ≤ 0.1 µM
COC(=O)Nc1cc(-c2cc(-c3cc(NC(=O)N[C@H]4C[C@](C)(F)C4)cnc3C)cc(OCCO)n2)ccn1: ≤ 0.1 µM
Cc1ncc(NC(=O)NCCC2(C)CC2)cc1-c1ccnc(-c2ccnc(NC(=O)C3CC3)c2)c1: ≤ 0.1 µM
Cc1cc(F)c(NC(=O)N2CC[C@H](C(F)(F)F)C2)cc1-c1cncc(-c2cc(NC(=O)C3CC3)ncn2)c1: ≤ 0.1 µM
COC(=O)Nc1cc(-c2cc(-c3cc(NC(=O)N4CCC(C(F)(F)F)C4)ccc3C)cc(OCCO)n2)ccn1 (stereo not drawn): ≤ 0.1 µM
Cc1ccc(NC(=O)NCCC(C)(C)C#N)cc1-c1cc(-c2cnn(C)c2)nc(N2CCOCC2)c1: 0.1 to 0.5 µM
COC(C)(C)CCNC(=O)Nc1cnc(C)c(-c2nccc(-c3ccnc(NC(=O)C4CC4)c3)n2)c1: ≤ 0.1 µM
